Entries and their EC50
Target: Claudin 18.2 (CLDN18.2), expressed on CHOS-CLDN 18.2 / HEK293-CLDN 18.2 / HCC827-CLDN 18.2 cells (human, UniProt P56856 1-261)
Assay: cell ELISA
Numeric only. Scale: µg/mL

Please review the entries below; each comes with its answer.
QP190191 (antibody, V domains shown) VH: EVKLVESGGGLVKPGGSLKLSCAASGFTFSNYAMSWVRQTPEKRLEWVASIISGGRTYYLDSEKGRFTISRDNARNNLYLQMSSLRSEDTAMYYCTRIYYGNSFDYWGQGTTLTVSS VL: DIVMTQSPSSQTVTAGEKVTMSCKSSQSLLNSGNQKNYLTWYQQKPGQPPKLLIYWASTRESGVPDRFTGSGSGTDFTLTISNMQAEDLAVYYCQNDYSYPFTFGSGTKLEIK
0.178
QP14361433 (antibody, V domains shown) VH: EVQLVESGGGLVKPGGSLRLSCAASGFTFSNYAMSWVRQAPGKGLEWVSSIISGGRTYYLDSEKGRFTISRDNAKNSLYLQMNSLRAEDTAVYYCTRIYYGNSFDYWGQGTLVTVSS VL: DIVMTQSPDSLAVSLGERATINCKSSQSLLNSGNQKNYLTWYQQKPGQPPKLLIYWASTRESGVPDRFSGSGSGTDFTLTISSLQAEDVAVYYCQNDYSYPFTFGQGTKLEIK
0.112
QP14371433 (antibody, V domains shown) VH: EVQLVESGGGLVKPGGSLRLSCAASGFTFSNYAMSWVRQAPGKGLEWVASIISGGRTYYLDSEKGRFTISRDNAKNSLYLQMNSLRAEDTAVYYCTRIYYGNSFDYWGQGTLVTVSS VL: DIVMTQSPDSLAVSLGERATINCKSSQSLLNSGNQKNYLTWYQQKPGQPPKLLIYWASTRESGVPDRFSGSGSGTDFTLTISSLQAEDVAVYYCQNDYSYPFTFGQGTKLEIKR
0.108
QP14361435 (antibody, V domains shown) VH: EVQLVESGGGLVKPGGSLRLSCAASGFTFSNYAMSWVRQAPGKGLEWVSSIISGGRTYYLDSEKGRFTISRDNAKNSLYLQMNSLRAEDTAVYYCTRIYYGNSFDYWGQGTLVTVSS VL: DIVMTQSPDSLAVSLGERATISCKSSQSLLNSGNQKNYLTWYQQKPGQPPKLLIYWASTRESGVPDRFTGSGSGTDFTLTISSLQAEDVAVYYCQNDYSYPFTFGQGTKLEIKR
0.109

With those in mind, consider the next binder.
Task: Could you share which EC50 value was measured for QP14631460 (antibody, V domains shown) VH: QVQLVQSGAEVKKPGASVKVSCKASGYTFTSYIMHWVRQAPGQGLEWMGYINPYNDGTKYNEKFKGRVTMTRDTSTSTVYMELSSLRSEDTAVYYCARLGFTTRNAMDYWGQGTLVTVSS VL: DIVMTQSPDSLAVSLGERATINCKSSQSLLNSGNQKNYLAWYQQKPGQPPKLLIYGASTRESGVPDRFSGSGSGTDFTLTISSLQAEDVAVYYCQNDHSYPFTFGQGTKLEIK ?
Result: 0.135
